// protein stability index lookup, one value per entry
experiment: protein stability index of a GFP-peptide fusion (yeast GPS) (PSI 1-4); higher = more stable; sorted into four equal gates, so the index is relative within each strain; conditions: san1∆
Enter a number only.

[
  {
    "sequence": "PVYTAQWSATWIAMRRE [PRP8]",
    "protein stability index": 1.97
  },
  {
    "sequence": "VSTEGNVPQTLAPVPYE [RPL21A]",
    "protein stability index": 3.11
  }
]

Return reported protein stability index. Input sequence: NVVGKLISIISSVIQNY [YML103C/NUP188] 1.36

Return reported protein stability index. Input sequence: RRMGILKKILDQCKKQR [RPO31] 1.61

Return reported protein stability index. Input sequence: PTHIWNAKRSHMMKRWG [POP1] 1.98

Return reported protein stability index. Input sequence: QQIQEQVLKCKESWDPN [YGR119C/NUP57] 3.33

###

experiment: protein stability index of a GFP-peptide fusion (yeast GPS) (PSI 1-4); higher = more stable; sorted into four equal gates, so the index is relative within each strain; settings: doa10∆
Use yes when the recorded protein stability index is no lower than 3; use no when it is lower.

State whether the measured protein stability index reaches 3, counting equality as reaching it, for GAKPEEKKDDNSSKPAF [YJL041W/NSP1] yes

State whether the measured protein stability index reaches 3, counting equality as reaching it, for EFISIYSNSHQMAVHIA [RET1] yes

State whether the measured protein stability index reaches 3, counting equality as reaching it, for TKPNVLNDPSLKIQFIL [SIN4] no

State whether the measured protein stability index reaches 3, counting equality as reaching it, for ESDGRMFIEEPTRMVRV [SRP54] no

State whether the measured protein stability index reaches 3, counting equality as reaching it, for FKPSQEPEFHALSQSSL [RRI1] no

###

test: protein stability index of a GFP-peptide fusion (yeast GPS) (PSI 1-4); higher = more stable; sorted into four equal gates, so the index is relative within each strain; settings: pdr5∆
reported-property: protein stability index
Enter a number only.

[
  {
    "sequence": "APEQQVQQFAQLPVGFK [UBP6]",
    "protein stability index": 2.99
  }
]

Return reported protein stability index. Input sequence: DEIHIPAPSKPVIDYEL [BRR2] 3.08

Return reported protein stability index. Input sequence: SDEEENNNNKSINKNNK [SSN2] 3.02

Return reported protein stability index. Input sequence: QLKDMQTIEMITQIVEK [SRB8] 3.19

Return reported protein stability index. Input sequence: LHYDKDYNLRIYCYFLI [SSN8] 1.37

Return reported protein stability index. Input sequence: KKNDMNTSAKNKNGENK [SIR4] 2.69

Return reported protein stability index. Input sequence: QLLQRLNDMNTEISGLK [SMC3] 3.38

Return reported protein stability index. Input sequence: SLDMNSMNKELIAIVSK [NUT1] 1.44

Return reported protein stability index. Input sequence: SSWQIYSDENDPSISNN [RRP4] 3.16

Return reported protein stability index. Input sequence: SPELSLQRHLSLGIRPC [RRP43] 2.65

Return reported protein stability index. Input sequence: QEETVVEQTAEVTIEDA [RPS12] 3.38

Return reported protein stability index. Input sequence: VSNILSAFKFIHTQLSE [YJL039C/NUP192] 1.92

Return reported protein stability index. Input sequence: YDTQLKVSPEELPLVIT [ARP7] 2.77

Return reported protein stability index. Input sequence: QQQQQNTNNNDTIATSA [GAL11] 2.58

Return reported protein stability index. Input sequence: KKAKLVLIANDVDPIEL [RPL8A] 2.81

###

test: protein stability index of a GFP-peptide fusion (yeast GPS) (PSI 1-4); higher = more stable; sorted into four equal gates, so the index is relative within each strain; conditions: san1∆
// protein stability index lookup, one value per entry
Enter a number only.

Check out these entries, answers already filled in.
[
  {
    "sequence": "RGAHVEKTMVKKNLGRL [PRP8]",
    "protein stability index": 3.14
  },
  {
    "sequence": "KIEGVATPQDAQFYLGK [RPL33A]",
    "protein stability index": 3.3
  },
  {
    "sequence": "INKNSKIALREYINNCK [POP4]",
    "protein stability index": 2.42
  },
  {
    "sequence": "EKKILNQFLKIKKKRKE [SMC1]",
    "protein stability index": 2.89
  },
  {
    "sequence": "GLMKSYKIPKVMKDIYK [ESC2]",
    "protein stability index": 2.42
  }
]

Return reported protein stability index. Input sequence: IVQELLDKNLIKLVKQN [RPC34] 2.62

Return reported protein stability index. Input sequence: LTDPMTVMFFYHNKHMM [DIB1] 2.33

Return reported protein stability index. Input sequence: MANLSQIYTQRAYMRPL [SCL1] 1.47

###

// protein stability index lookup, one value per entry
test: protein stability index of a GFP-peptide fusion (yeast GPS) (PSI 1-4); higher = more stable; sorted into four equal gates, so the index is relative within each strain; conditions: ubr1∆

Check out these entries, answers already filled in.
[
  {
    "sequence": "LLSDTFEVLAPKWERVF [RRI2]",
    "recorded-value": 2.93
  },
  {
    "sequence": "KKIENTMLENITLRGVE [RPO21]",
    "recorded-value": 3.09
  },
  {
    "sequence": "FHKQQAHFWKPVLNLDK [RPL28]",
    "recorded-value": 2.93
  },
  {
    "sequence": "AARYDYAVAEQCPVKSA [QCR2]",
    "recorded-value": 1.88
  }
]

Return reported protein stability index. Input sequence: KIEGVATPQDAQFYLGK [RPL33A] 3.25

Return reported protein stability index. Input sequence: SSNCHVRQKIKTLKRMI [POP1] 2.01

Return reported protein stability index. Input sequence: LKVYKVGDIVDIKANGS [RPL21A] 2.11

###

test: protein stability index of a GFP-peptide fusion (yeast GPS) (PSI 1-4); higher = more stable; sorted into four equal gates, so the index is relative within each strain; details: ubr1∆
reported-property: protein stability index
Enter a number only.

Check out these entries, answers already filled in.
[
  {
    "sequence": "QVASIIESFVELGVSIY [NUT2]",
    "reported-property": "protein stability index",
    "recorded-value": 1.76
  },
  {
    "sequence": "KIMQSISNKDVIFKIRD [SRB4]",
    "reported-property": "protein stability index",
    "recorded-value": 2.72
  },
  {
    "sequence": "TSGEAAALGMGLCMLGT [RPN2]",
    "reported-property": "protein stability index",
    "recorded-value": 2.68
  },
  {
    "sequence": "TIFGGVDKNGAHLYMLE [PRE10]",
    "reported-property": "protein stability index",
    "recorded-value": 3.29
  },
  {
    "sequence": "KKVKSASKKSGGDVVKF [SMC4]",
    "reported-property": "protein stability index",
    "recorded-value": 3.12
  },
  {
    "sequence": "GAKPEEKKDDNSSKPAF [YJL041W/NSP1]",
    "reported-property": "protein stability index",
    "recorded-value": 2.86
  },
  {
    "sequence": "ESEEAETKDIRKQIQLL [SRB4]",
    "reported-property": "protein stability index",
    "recorded-value": 2.71
  },
  {
    "sequence": "LKTRYVGRQDPKKHLSE [RPN11]",
    "reported-property": "protein stability index",
    "recorded-value": 3.26
  }
]

Return reported protein stability index. Input sequence: GTSKYLINGHRAPQQSV [SMC2] 2.22

Return reported protein stability index. Input sequence: FIESIVVDFKNKENDNV [SNF12] 3.03

Return reported protein stability index. Input sequence: TPEMNVTNNVEEGEFII [TAF14] 3.62

Return reported protein stability index. Input sequence: KYLYLRAVGGEVGASAA [RPL12A] 2.11

Return reported protein stability index. Input sequence: KNRSNRKRFHSQSKGTV [YOR098C/NUP1] 3.26

Return reported protein stability index. Input sequence: YFKLSITSFDQDVDDAH [POP8] 2.25

Return reported protein stability index. Input sequence: KPLKKGSADIGASVISL [SIR4] 3.06

Return reported protein stability index. Input sequence: SPDKIGTFTADYSKPNL [SSN2] 2.92

Return reported protein stability index. Input sequence: YSYTTIVLSDQTQEFFL [YJL039C/NUP192] 2.82

Return reported protein stability index. Input sequence: MTVAHLIECLLSKVAAL [RPB2] 1.54

Return reported protein stability index. Input sequence: AAKGSSTSYAIKKKDEL [RPS5] 3.28

Return reported protein stability index. Input sequence: RATTYEKLTMVFQDNVY [SIN4] 2.53

Return reported protein stability index. Input sequence: PKFAIQDNHHITKVTEN [YMR129W/POM152] 3.09

Return reported protein stability index. Input sequence: LVNRKPIPFEFQAVIQK [SNF2] 2.83

Return reported protein stability index. Input sequence: YSWLLFEASCMEGQKLD [YJR042W/NUP85] 1.17

Return reported protein stability index. Input sequence: RGPYLVIVPLSTLSNWS [SNF2] 2.41

Return reported protein stability index. Input sequence: HVLSRLSYISALGMMTR [RET1] 1.33

Return reported protein stability index. Input sequence: SEGSGSSLVQKGLETID [RPC53] 3.08

Return reported protein stability index. Input sequence: YISNLLYGVTICYNKKT [REC8] 1.21

Return reported protein stability index. Input sequence: LTPIQKKIMDETPSRLL [ITC1] 3.39

Return reported protein stability index. Input sequence: YWVPDWDGVIPTPAIIK [RPO21] 2.8
